# experimental system: Alpha-2C adrenergic receptor (Homo sapiens)
# protocol notes: compounds altering alpha2C-coupled GIRK flux – cell-based, HEK293 alpha2C/GIRK1/2, thallium flux, primary screen (AID 624);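 also: slope of fluorescence ratio to pre-addition baseline per second over 15 to 24 s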
# test settings: thallium flux BTC fluorescence, at 10 µM, actives lie on both sides
assay metric: slope
Write no unit; give the number alone.

Worked examples, 4 molecules total:
> print(dat)
                                   molecule  assay.metric  reported
1  Cc1ccccc1NC(=O)CSc1nc(N)c(C#N)c(-c2cccs2)c1C#N         slope   0.00696
2  CC1CCc2nn(CC(=O)NCc3ccc4c(c3)OCO4)cc2C1 (stereo unspecified)         slope   0.00628
3  CCCN(Cc1cc2ccc(C)cc2[nH]c1=O)C(=O)c1cccnc1         slope   0.00624
4  COc1ccc(C2c3sc(=O)[nH]c3SC3C4CCC(C4)C23)cc1 (stereo unspecified)         slope   0.00413

Quick one: slope for N#CCc1c(C#N)c(N)nc(N2CCN(S(=O)(=O)c3ccccc3)CC2)c1C#N ?
0.00665

Quick one: slope for O=C(O)C1C2CCC(O2)C1C(=O)NCCC1=CCCCC1 (stereo unspecified) ?
0.0055
